System: COLO 205 colon
Assay: NCI tumour cell line growth inhibition, 48 h
*1 amine or outer side, *2 acyl side, *3 side chain or, on linkers, in order; H or OH if unused. Where a SMILES comes first, the peptide text is derived from it. [ ]: non-standard residue; d: D form. The star is where a group is joined. X11 = C/C=C/CC(C)C(O)[C@H](N[*:1])C(=O)[*:2]; Decanoyl = CCCCCCCCCC(=O)*; Leu(ol) = CC(C)C[C@H](N)CO; Aib = CC(C)(N)C(=O)O
measuredEndpoint: TGI (µM)
Express your answer in µM, writing the number without its unit.

// solved cases for TGI follow
CCc1ccc(SC2c3ccc(N(CC)CC)cc3Oc3nc(N)c(C#N)c(N)c32)cc1 (centres undefined) = 3.51
CN1CCN(Cc2ccc(NC(=O)c3cncc(C#Cc4cnc5ccc(N)nn45)c3)cc2C(F)(F)F)CC1 = 1.35
CN1CCN(Cc2ccc(NC(=O)c3cncc(C#Cc4cnc5ccc(OCCCS(C)(=O)=O)nn45)c3)cc2C(F)(F)F)CC1 = 1.15

# input for lookup
### Prompt Using the record for C/C=C/CC(C)C(O)[C@H](NC(=O)[C@@H]1CCCN1C(=O)C(C)(C)NC(=O)CCCCCCCCC)C(=O)NC(C)(C)C(=O)N[C@@H](CCC(N)=O)C(=O)N[C@H](CCC(N)=O)C(=O)NC(C)(C)C(=O)NC(C)(C)C(=O)N[C@@H](CCC(N)=O)C(=O)N[C@H](CC(C)C)C(=O)N[C@H](CO)CC(C)C (stereo partly drawn) (Decanoyl-[Aib]P[X11][Aib]Q[dQ][Aib][Aib]Q[dL][Leu(ol)]) , report its TGI.
### Response 3.33
